read-out: Interleukin-8 (IL8), CXCL8 (gene 3576); experiment: BSK_SAg_IL8: BioMAP Diversity Plus: SAg Assay for Interleukin-8 (IL8) Biomarker Activity (AID 2283094); conditions: primary human HUVEC with PBMC; actives raise or lower the signal
Activity calls are given as the source filed them. Rule for the calls: active = hit-call score of the fitted dose curve at least 0.9, where 1 is the maximum; inactive = score below 0.9.
Tick one outcome: active, inactive

{"compound": "C1N2CN3CN1CN(C2)C3", "label-value": "inactive"}
{"compound": "Clc1nc(Cl)c(Cl)c(Cl)c1Cl", "label-value": "active"}
{"compound": "O=C(O)CC(O)C(=O)O (stereo not given)", "label-value": "inactive"}

Here is another compound to look at.
QUERY: Fill in: this test's call for "CC[C@H](C)C(=O)O[C@H]1C[C@@H](C)C=C2C=C[C@H](C)[C@H](CC[C@@H]3C[C@@H](O)CC(=O)O3)[C@H]21" is ___
RESULT: active
